Reported GI50 values for a set of molecules
- Test system: 786-0
- experiment summary: NCI tumour cell line growth inhibition, 48 h
The source made the active and inactive calls. No stated cut-off is given here; in the data, active = GI50 up to about 1.1 µM and inactive = higher.

Field: example entries. Status: answers known.
Brc1ccc2c(c1)-c1nc3nc4c(cc3cc1CC2)CCc1ccc(Br)cc1-4    > 100 µM (inactive)
CN(NC(=O)c1cccs1)C1=NCCCN1    > 100 µM (inactive)
c1ccc(B2OCC(C3OB(c4ccccc4)OC4COB(c5ccccc5)OC43)O2)cc1 (stereo unspecified)    > 100 µM (inactive)
NCCN(CCN(C(=O)Nc1ccccc1)c1ccccc1)C(=O)Nc1ccccc1    24.9 µM (inactive)
C=C1c2nc3ccccc3n2C=C(c2ccccc2)N1c1ccc([N+](=O)[O-])cc1    0.855 µM (active)
COc1ccc(N)c(C(O)CCNC(C)=O)c1 (stereo unspecified)    > 100 µM (inactive)

Q. Endpoint output: GI50 of COc1ccccc1CCN1CCN(CCCc2ccccc2)CC1 . Value?
A. 45.6 µM (inactive)

Q. Endpoint output: GI50 of Cc1nc2c(n1-c1ccc(Br)cc1)C(=O)c1ccccc1C2=O . Value?
A. 5.16 µM (inactive)

Q. Endpoint output: GI50 of Clc1ccc(-c2nc3ccc4ccccc4c3c3c2CCCC3)cc1 . Value?
A. 75.2 µM (inactive)

Q. Endpoint output: GI50 of c1ccc([P+](Cc2ccc(C[P+](c3ccccc3)(c3ccccc3)c3ccccc3)s2)(c2ccccc2)c2ccccc2)cc1 . Value?
A. > 100 µM (inactive)

Q. Endpoint output: GI50 of COc1cc(CCC(=O)O)c2cc3ccccc3cc2c1O . Value?
A. 16.8 µM (inactive)

Taken from ChEMBL document CHEMBL1201862.
